- subject_of_test: Beta-2 adrenergic receptor (Rattus norvegicus)
- Sequence (P10608 whole entry): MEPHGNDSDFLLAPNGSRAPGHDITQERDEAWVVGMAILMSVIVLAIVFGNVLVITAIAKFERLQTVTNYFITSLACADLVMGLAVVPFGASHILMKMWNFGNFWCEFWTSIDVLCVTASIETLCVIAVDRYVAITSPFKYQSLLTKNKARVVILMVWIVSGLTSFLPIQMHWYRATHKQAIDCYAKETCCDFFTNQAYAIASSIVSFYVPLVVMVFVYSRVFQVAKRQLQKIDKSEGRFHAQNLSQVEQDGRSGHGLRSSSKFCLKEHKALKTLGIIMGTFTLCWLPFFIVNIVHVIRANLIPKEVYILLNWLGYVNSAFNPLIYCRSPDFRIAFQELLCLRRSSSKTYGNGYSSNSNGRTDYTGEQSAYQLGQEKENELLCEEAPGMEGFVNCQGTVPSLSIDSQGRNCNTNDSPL
pKi: −log10 of the molar value.
result_type: pKi

Please tell me: pKi of CN(C)CCC=C1c2ccccc2CCc2ccccc21 , system Beta-2 adrenergic receptor (Rattus norvegicus)?
< 5.00

Record: Fc1ccc([C@@H]2CCNC[C@H]2COc2ccc3c(c2)OCO3)cc1
< 5.00

Record: COCCCC/C(=N\OCCN)c1ccc(C(F)(F)F)cc1
< 5.00

----------
So I've got pKi readings for 5-hydroxytryptamine receptor 2C (Rattus norvegicus, UniProt P08909), take a look.
Where a name gives a salt, the structure may show the parent alone.
API: returns pKi as number; meaning -log10 of concentration in mol/L.

What measured pKi goes with COCCCC/C(=N\OCCN)c1ccc(C(F)(F)F)cc1 ?
5.17

Record: CN(C)CCCC1(c2ccc(F)cc2)OCc2cc(C#N)ccc21 (stereo unspecified) [CITALOPRAM HYDROBROMIDE]
6.20

Record: CN(C)CCC=C1c2ccccc2CCc2ccccc21
8.10

Attribution: BindingDB's records for doi:10.1023/a:1006986824213
